Can you tell me Avg % ID, Liver for the items I'm about to list?
Assay notes: Biodistribution of radiometal-DOTA-BBN conjugates in CF1 normal mice
Measurement setup: 1 hour post-injection
Write the answer as a number in % ID, unit excluded.

Please give the documented Avg % ID, Liver of CSCC[C@H](NC(=O)[C@H](CC(C)C)NC(=O)[C@H](Cc1cnc[nH]1)NC(=O)CNC(=O)[C@@H](NC(=O)[C@H](C)NC(=O)[C@H](Cc1c[nH]c2ccccc12)NC(=O)[C@H](CCC(N)=O)NC(=O)CCCCCCCNC(=O)CN1CCN(CC(=O)O)CCN(CC(=O)O)CCN(CC(=O)O)CC1)C(C)C)C(N)=O [177Lu-DOTA-8-Aoc-BBN[7-14]NH2] [metal not drawn]
0.31

Please report the measured Avg % ID, Liver for CSCC[C@H](NC(=O)[C@H](CC(C)C)NC(=O)[C@H](Cc1cnc[nH]1)NC(=O)CNC(=O)[C@@H](NC(=O)[C@H](C)NC(=O)[C@H](Cc1c[nH]c2ccccc12)NC(=O)[C@H](CCC(N)=O)NC(=O)CCNC(=O)CN1CCN(CC(=O)O)CCN(CC(=O)O)CCN(CC(=O)O)CC1)C(C)C)C(N)=O [177Lu-DOTA-β-Ala-BBN[7-14]NH2] [metal not drawn]
0.21

Using the record for CSCC[C@H](NC(=O)[C@H](CC(C)C)NC(=O)[C@H](Cc1c[nH]cn1)NC(=O)CNC(=O)[C@@H](NC(=O)[C@H](C)NC(=O)[C@H](Cc1c[nH]c2ccccc12)NC(=O)[C@H](CCC(N)=O)NC(=O)CCCCNC(=O)CN1CCN(CC(=O)O)CCN(CC(=O)O)CCN(CC(=O)O)CC1)C(C)C)C(N)=O [149Pm-DOTA-5-Ava-BBN[7-14]NH2] , state its measured Avg % ID, Liver.
0.37

Supply reported Avg % ID, Liver belonging to this compound: CSCC[C@H](NC(=O)[C@H](CC(C)C)NC(=O)[C@H](Cc1cnc[nH]1)NC(=O)CNC(=O)[C@@H](NC(=O)[C@H](C)NC(=O)[C@H](Cc1c[nH]c2ccccc12)NC(=O)[C@H](CCC(N)=O)NC(=O)CN1CCN(CC(=O)O)CCN(CC(=O)O)CCN(CC(=O)O)CC1)C(C)C)C(N)=O [149Pm-DOTA-0-BBN[7-14]NH2]
0.16

Annotate the compound CSCC[C@H](NC(=O)[C@H](CC(C)C)NC(=O)[C@H](Cc1cnc[nH]1)NC(=O)CNC(=O)[C@@H](NC(=O)[C@H](C)NC(=O)[C@H](Cc1c[nH]c2ccccc12)NC(=O)[C@H](CCC(N)=O)NC(=O)CN1CCN(CC(=O)O)CCN(CC(=O)O)CCN(CC(=O)O)CC1)C(C)C)C(N)=O [177Lu-DOTA-0-BBN[7-14]NH2] [metal not drawn] with its measured Avg % ID, Liver.
0.19

Give the value of Avg % ID, Liver reported for the following: CSCC[C@H](NC(=O)[C@H](CC(C)C)NC(=O)[C@H](Cc1cnc[nH]1)NC(=O)CNC(=O)[C@@H](NC(=O)[C@H](C)NC(=O)[C@H](Cc1c[nH]c2ccccc12)NC(=O)[C@H](CCC(N)=O)NC(=O)CCCCCCCNC(=O)CN1CCN(CC(=O)O)CCN(CC(=O)O)CCN(CC(=O)O)CC1)C(C)C)C(N)=O [111In-DOTA-8-Aoc-BBN[7-14]NH2] [metal not drawn]
1.02

Identify the reported Avg % ID, Liver for the following entry. CSCC[C@H](NC(=O)[C@H](CC(C)C)NC(=O)[C@H](Cc1cnc[nH]1)NC(=O)CNC(=O)[C@@H](NC(=O)[C@H](C)NC(=O)[C@H](Cc1c[nH]c2ccccc12)NC(=O)[C@H](CCC(N)=O)NC(=O)CCNC(=O)CN1CCN(CC(=O)O)CCN(CC(=O)O)CCN(CC(=O)O)CC1)C(C)C)C(N)=O [149Pm-DOTA-β-Ala-BBN[7-14]NH2]
0.23

Let me know recorded Avg % ID, Liver for CSCC[C@H](NC(=O)[C@H](CC(C)C)NC(=O)[C@H](Cc1c[nH]cn1)NC(=O)CNC(=O)[C@@H](NC(=O)[C@H](C)NC(=O)[C@H](Cc1c[nH]c2ccccc12)NC(=O)[C@H](CCC(N)=O)NC(=O)CCCCNC(=O)CN1CCN(CC(=O)O)CCN(CC(=O)O)CCN(CC(=O)O)CC1)C(C)C)C(N)=O [111In-DOTA-5-Ava-BBN[7-14]NH2] [metal not drawn] , thanks.
0.26

Quick one: give measured Avg % ID, Liver for CSCC[C@H](NC(=O)[C@H](CC(C)C)NC(=O)[C@H](Cc1c[nH]cn1)NC(=O)CNC(=O)[C@@H](NC(=O)[C@H](C)NC(=O)[C@H](Cc1c[nH]c2ccccc12)NC(=O)[C@H](CCC(N)=O)NC(=O)CCCCCCCCCCNC(=O)CN1CCN(CC(=O)O)CCN(CC(=O)O)CCN(CC(=O)O)CC1)C(C)C)C(N)=O [177Lu-DOTA-11-Aun-BBN[7-14]NH2] [metal not drawn]
2.26

Give the value of Avg % ID, Liver reported for the following: CSCC[C@H](NC(=O)[C@H](CC(C)C)NC(=O)[C@H](Cc1c[nH]cn1)NC(=O)CNC(=O)[C@@H](NC(=O)[C@H](C)NC(=O)[C@H](Cc1c[nH]c2ccccc12)NC(=O)[C@H](CCC(N)=O)NC(=O)CCCCNC(=O)CN1CCN(CC(=O)O)CCN(CC(=O)O)CCN(CC(=O)O)CC1)C(C)C)C(N)=O [177Lu-DOTA-5-Ava-BBN[7-14]NH2] [metal not drawn]
0.14
